Give pKd for every item shown.
target_or_test_system: AFP158/HLA-A*02:01 complex
assay_explanation: SPR
Answers are plain numbers, as −log10 of the molar value.

# example entries with known answers
1. AS170036 scFv-mIgG2aFc (Fc fusion) QLVLTQPSSVSGTPGQTVTISCAGTSSDVGSENYVSWYRQLPGTAPKLLIYQVNKRASGIADRFSGSKSGNTASMTISGLQSADEADYYCASYRSSDHNIVFGGGTHLTVLGGGGSGGGGSGGGGSAVQLVESGGGLVQPGGSLRLSCTASGFTFSSYAMSWVRQAPGKGLEWVSTINSGTGSPYYADSVKGRFTISRDNAKNTLYLQLNSLKTEDTAMYYCAKNFFDGSWFLGPPAMDYWGKGTLVTISS
6.41
2. AS179732 scFv-mIgG2aFc (Fc fusion) NFMLTQPPSMSGSPRQSVTISCTGSSSNIGGNYVNWYQHLPGTAPKLLIYDNSNRASGVPERFSGSKSGSSASLTITGLQAEDEGDYYCASWDDSLSGAVFGGGTHLTVLGGGGSGGGGSGGGGSEVQLVESGGGLVQPGGSLRLSCAASGFTFLNYAMSWVRQAPGKGLEWVSSNSGAGSTYYSDSVKGRFTISRDYAKNVVYLQLNSLKTEDTGMYYCAKGTNVGSWSSLHYWGQGTQVTVSS
7.40
3. AS179723 scFv-mIgG2aFc (Fc fusion) QAGLTQPPSMSGSPRQSVTISCTGSSNNIGGNYVNWYQHLPGTAPKLLIYDNKNRPSGVPEQISGSKSGSSASLTITGLQAEDEGDYYCASWDDSLSAVVFGGGTHLTVLGGGGSGGGGSGGGGSEVQLVESGGGLVQPGGSLRLSCAASGFTFLNYAMSWVRQAPGKGLEWVSSNSGAGSTYYSDSVKGRFTISRDYAKNVVYLQLNSLKTEDTGMYYCAKGTNVGSWSSLHYWGQGTQVTVSS
7.09

Inquiry: I have this binder here, AS170036 VL1VH1 scFv-mIgG2aFc (Fc fusion) QSALTQPRSVSGSPGQSVTISCAGTSSDVGSENYVSWYQQHPGKAPKLMIYQVNKRASGVPDRFSGSKSGNTASLTISGLQAEDEADYYCASYRSSDHNIVFGGGTKLTVLGGGGSGGGGSGGGGSEVQLVESGGGLVQPGGSLRLSCAASGFTFSSYAMSWVRQAPGKGLEWVSTINSGTGSPYYADSVKGRFTISRDNSKNTLYLQMNSLRAEDTAVYYCAKNFFDGSWFLGPPAMDYWGQGTLVTVSS , and I need its recorded pKd.
Reply text: 6.59
